- experimental-system: cGMP-inhibited 3',5'-cyclic phosphodiesterase 3B (Homo sapiens, UniProt Q13370)
- Sequence (Q13370 whole entry): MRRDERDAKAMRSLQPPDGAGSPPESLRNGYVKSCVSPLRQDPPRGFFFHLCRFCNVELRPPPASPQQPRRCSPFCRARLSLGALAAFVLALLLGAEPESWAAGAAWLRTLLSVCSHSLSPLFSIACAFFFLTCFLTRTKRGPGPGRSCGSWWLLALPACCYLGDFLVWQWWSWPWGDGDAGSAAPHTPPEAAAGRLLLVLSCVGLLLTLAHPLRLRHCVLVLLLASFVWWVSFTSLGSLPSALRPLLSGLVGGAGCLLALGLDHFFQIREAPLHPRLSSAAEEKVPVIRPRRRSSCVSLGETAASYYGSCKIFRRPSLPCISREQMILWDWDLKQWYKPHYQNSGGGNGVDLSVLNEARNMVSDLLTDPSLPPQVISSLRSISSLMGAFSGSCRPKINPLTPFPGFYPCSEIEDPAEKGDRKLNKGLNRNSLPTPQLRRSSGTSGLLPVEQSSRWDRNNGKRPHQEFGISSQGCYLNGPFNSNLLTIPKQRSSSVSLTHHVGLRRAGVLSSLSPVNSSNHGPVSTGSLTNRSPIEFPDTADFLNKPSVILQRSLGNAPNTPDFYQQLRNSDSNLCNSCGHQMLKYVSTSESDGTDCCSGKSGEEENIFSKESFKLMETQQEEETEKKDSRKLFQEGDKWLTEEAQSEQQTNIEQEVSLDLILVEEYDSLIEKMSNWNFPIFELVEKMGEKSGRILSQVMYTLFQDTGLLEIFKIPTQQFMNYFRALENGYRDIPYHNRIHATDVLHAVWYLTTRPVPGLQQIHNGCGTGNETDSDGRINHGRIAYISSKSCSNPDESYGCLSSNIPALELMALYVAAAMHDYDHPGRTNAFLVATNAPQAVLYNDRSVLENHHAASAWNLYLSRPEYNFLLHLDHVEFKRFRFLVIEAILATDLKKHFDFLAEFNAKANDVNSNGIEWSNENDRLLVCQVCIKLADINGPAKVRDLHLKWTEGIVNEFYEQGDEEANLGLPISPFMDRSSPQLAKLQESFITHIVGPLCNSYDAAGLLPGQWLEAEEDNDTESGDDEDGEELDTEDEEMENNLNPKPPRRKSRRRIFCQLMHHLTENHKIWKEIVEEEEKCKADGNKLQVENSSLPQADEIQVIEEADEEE
- experimental-details: Inhibition of human recombinant PDE3B transfected in Sf9 cells by SPA
Kindly state Ki for each of the entries shown.
Numbers only, in nM.

Answered cases to consult:
Input: // Ki lookup, key: COc1cc2ncnc(N3CC[C@@H](Oc4ccc5c(c4)CCC5)C3)c2cc1OC
Output: 237

Input: // Ki lookup, key: COc1cc2ncnc(N3CC[C@@H](Oc4cnc5ccccc5n4)C3)c2cc1OC
Output: 273

Input: // Ki lookup, key: COc1cc2ncnc(N3CC[C@@H](Oc4ccccn4)C3)c2cc1OC
Output: 207

Could I get Ki for every one of these entries?
1. COc1ccc2ccc(O[C@@H]3CCN(c4ncnc5cc(OC)c(OC)cc45)C3)cc2c1
2. COc1cc2ncnc(N3CC[C@@H](Oc4ncc(Cl)cn4)C3)c2cc1OC
3. COc1cc2ncnc(N3CC[C@@H](Oc4ccc5ccccc5c4)C3)c2cc1OC
4. COc1cc2ncnc(N3CC[C@@H](Oc4cccc(-c5ccccc5)c4)C3)c2cc1OC
5. CCOc1ccc(O[C@@H]2CCN(c3ncnc4cc(OC)c(OC)cc34)C2)cc1

Output:
305
332
463
280
328

Could I get Ki for every one of these entries?
1. COc1cc2ncnc(N3CC[C@@H](Oc4ccncc4)C3)c2cc1OC
2. COc1ccc(O[C@@H]2CCN(c3ncnc4cc(OC)c(OC)cc34)C2)cc1OC
3. COc1ccc2cc(O[C@@H]3CCN(c4ncnc5cc(OC)c(OC)cc45)C3)ccc2c1
4. CCOc1cccc(O[C@@H]2CCN(c3ncnc4cc(OC)c(OC)cc34)C2)c1
5. COc1cc2ncnc(N3CC[C@@H](Oc4ccc5cccnc5c4)C3)c2cc1OC
6. COc1cc2ncnc(N3CC[C@@H](Oc4ccc5nc(C)ccc5c4)C3)c2cc1OC
7. COc1cc2ncnc(N3CC[C@@H](Oc4ccc(OC(F)(F)F)cc4)C3)c2cc1OC

Output:
[685, 260, 280, 88, 240, 223, 1820]

Could I get Ki for every one of these entries?
1. COc1cc2ncnc(N3CC[C@@H](Oc4cccnc4)C3)c2cc1OC
2. COc1cc2ncnc(N3CC[C@@H](Oc4ccc(C(C)(C)C)cc4)C3)c2cc1OC
3. COc1cc2ncnc(N3CC[C@@H](Oc4ccc(C#N)cc4)C3)c2cc1OC
4. COc1cc2ncnc(N3CC[C@@H](Oc4cccc(C(C)C)c4)C3)c2cc1OC

Output:
1. 748
2. 1890
3. 471
4. 474
